Test system: Saccharomyces cerevisiae;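 also: PSI is a weighted mean of sequencing reads over stability bins, variants kept only with over 10 reads, mCherry proximal and sfGFP distal, peptide attached via GGGS linker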
Test: protein stability index of tFT-peptide fusion (C-terminal peptide) (PSI (0-1 scale)); higher = more stable (slower turnover)
Settings: genetic background: wild type; temperature: 30 C
Measured Metric: protein stability index
Respond using a number only.

sequence_content=SRGRSFFAGVGG numeric_result=0.722

Ask: Look up protein stability index: FVLPSPRPPSMT
Result: 0.704

Ask: Need protein stability index of LLDGAGGGVGEG , thanks.
Result: 0.738

Ask: I have this sequence here, VLLAGPIPSALP , and I need its recorded protein stability index.
Result: 0.662

Ask: # get_value(readout='protein stability index', item= SYVFCYICGVQS )
Result: 0.428

Ask: For the sequence SYRGIGVGLCAG , what protein stability index is on record?
Result: 0.622

Ask: Recorded protein stability index for APRFLGLLCPLL , please?
Result: 0.655

Ask: Which protein stability index is listed for KKQQTIKKKKKR ?
Result: 0.701

Ask: Consider the sequence PLLSPLPSHPHP and give its measured protein stability index.
Result: 0.815

Ask: Name the reported protein stability index value associated with the sequence GDRTIALFFFTI
Result: 0.671
